Sourced from the Human Domainome abundance scans (Beltran et al. 2025)

B1: Pituitary-specific positive transcription factor 1, residues 130 to 198; numbered along this chain, P28069 (parent)
chain: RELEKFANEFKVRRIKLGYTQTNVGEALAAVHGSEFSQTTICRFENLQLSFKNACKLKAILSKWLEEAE

variants of: B1; assay: abundance fitness (aPCA) (normalised: wild type 0, dead -1); higher = more abundant; growth selection in yeast, the domain comes from the species named; conditions: Homo sapiens
Kindly state abundance fitness for each of the entries shown.
Answers are plain numbers.

Reference set, count: 5
S34C    -0.431
E2T    -0.334
Y19Q    -0.149
R13F    -0.872
T40S    -0.348

Need abundance fitness for each of these variants.
1. S34H
2. S50N
3. S37H
4. Y19S
5. K16T

a:
1: 0.039; 2: 0.022; 3: -0.689; 4: -0.696; 5: -0.809

Need abundance fitness for each of these variants.
1. K11G
2. E66I
3. N53V
4. C42N
5. K56N
6. A29M

a:
1: -0.6; 2: -0.281; 3: 0.122; 4: 0.092; 5: -0.131; 6: -0.402
